# TARGET ENTITY: recombinant eIF4E (Homo sapiens (Human))
# ASSAY: Fluorescence polarization competition assay for eIF4E binding potency
# CONDITIONS: inhibition of eIF4E/EDA-m7GDP-ATTO-550 binding; calculated IC50 values, Table 4B; read-out: IC50
Criterion: IC50 strictly less than 0.05 µM. Met: Satisfied. Not met: Not satisfied.

[[record]]
smiles_entry = "Cc1nc2cnc(N(C)C3CCN(C4CC(F)(F)C4)CC3)c(C#N)c2c(=O)n1CC#Cc1ccc(Cl)cc1-c1ccnc2c(C(=O)NS(=O)(=O)c3ccccn3)csc12"
target_entity = "recombinant eIF4E (Homo sapiens (Human))"
category = "Satisfied"

[[record]]
smiles_entry = "O=C(O)c1cccc(-c2cc(Cl)ccc2OCCn2c(C(F)F)nc3cnc(Cl)cc3c2=O)c1"
target_entity = "recombinant eIF4E (Homo sapiens (Human))"
category = "Not satisfied"

[[record]]
smiles_entry = "Cc1cc(-c2cc(Cl)ccc2OCCn2c(C)nc3cc(C(F)(F)F)c(-c4cnc(C)c(F)c4)c(C#N)c3c2=O)c2scc(C(=O)O)c2n1"
target_entity = "recombinant eIF4E (Homo sapiens (Human))"
category = "Satisfied"

[[record]]
smiles_entry = "Cc1nc2cc(C(F)(F)F)c(CCN(C)C)c(C#N)c2c(=O)n1CCOc1ccc(Cl)cc1-c1ccnc2ccsc12"
target_entity = "recombinant eIF4E (Homo sapiens (Human))"
category = "Not satisfied"

[[record]]
smiles_entry = "Cc1cc(-c2cc(Cl)ccc2OCCn2c(C)nc3cc(C(F)(F)F)c(C4CCN(C)CC4)cc3c2=O)c2sc(C)c(C(=O)O)c2n1"
target_entity = "recombinant eIF4E (Homo sapiens (Human))"
category = "Not satisfied"

[[record]]
smiles_entry = "COC(=O)c1sc2c(-c3cc(Cl)ccc3OCCn3c(C)nc4cc(C(F)(F)F)cc(C#N)c4c3=O)ccnc2c1O"
target_entity = "recombinant eIF4E (Homo sapiens (Human))"
category = "Not satisfied"

[[record]]
smiles_entry = "Cc1nc2cnc(N3CCN(C4(CCC(F)(F)F)CC4)CC3)c(C#N)c2c(=O)n1CCOc1ccc(Cl)cc1-c1ccnc2c(C(=O)O)csc12"
target_entity = "recombinant eIF4E (Homo sapiens (Human))"
category = "Satisfied"

[[record]]
smiles_entry = "Cc1nc2cnc(N3CCN(C4CC(F)(F)C4)CC3)c(C#N)c2c(=O)n1CCOc1ccc(Cl)cc1-c1ccnc2c(C(=O)O)csc12"
target_entity = "recombinant eIF4E (Homo sapiens (Human))"
category = "Not satisfied"


====

# TARGET ENTITY: recombinant eIF4E (Homo sapiens (Human), UniProt P06730)
# Sequence (P06730 whole entry): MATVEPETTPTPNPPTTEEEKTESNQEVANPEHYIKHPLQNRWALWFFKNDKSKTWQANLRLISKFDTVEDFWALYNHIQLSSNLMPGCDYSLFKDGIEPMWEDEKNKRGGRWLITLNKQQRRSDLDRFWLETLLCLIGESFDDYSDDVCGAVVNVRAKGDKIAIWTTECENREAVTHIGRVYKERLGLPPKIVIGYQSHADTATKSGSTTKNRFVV
# ASSAY: Fluorescence polarization competition assay for eIF4E binding potency
# CONDITIONS: fluorescence polarization competition, 75 nM recombinant eIF4E, 20 nM EDA-m7GDP-ATTO-550; IC50 class; read-out: elF4E FP
pIC50: −log10 of the molar value.
MEASURED QUANTITY: pIC50

[[record]]
molecule = "Cc1cc(-c2cc(Cl)ccc2OCCn2c(C)nc3cc(C(F)(F)F)c(C(C)N(C)C)c(C#N)c3c2=O)c2scc(C(=O)O)c2n1 (centres unmarked)"
obs_value = "6.00 to 7.30"

[[record]]
molecule = "Cc1cc(-c2cc(Cl)ccc2OCCn2c(C)nc3cnc(OCc4ccccn4)c(C#N)c3c2=O)c2scc(C(=O)O)c2n1"
obs_value = "> 7.30"

[[record]]
molecule = "Cc1cc(-c2cc(Cl)ccc2OCCn2c(C)nc3cc(C(F)(F)F)c(C(=O)N(C)C)c(C#N)c3c2=O)c2scc(C(=O)O)c2n1"
obs_value = "> 7.30"

[[record]]
molecule = "Cc1nc2cc(C(F)(F)F)cc(C#N)c2c(=O)n1CCOc1ccc(Cl)cc1-c1ccnc2c(C(=O)O)cn(C)c12"
obs_value = "> 7.30"

[[record]]
molecule = "Cc1nc2c(N3CCNCC(F)(F)C3)ncc(C#N)c2c(=O)n1CCOc1ccc(Cl)cc1-c1ccnc2c(C(=O)O)csc12"
obs_value = "> 7.30"

[[record]]
molecule = "N#Cc1cc2c(=O)n(CCOc3ccc(Cl)cc3-c3nc(C(=O)O)cs3)cnc2cn1"
obs_value = "< 6.00"

[[record]]
molecule = "Cc1nc2cc(C(F)(F)F)cc(C#N)c2c(=O)n1CCOc1ccc(Cl)cc1-c1coc2c(C(=O)O)ccnc12"
obs_value = "6.00 to 7.30"

[[record]]
molecule = "Cc1nc2cc(C(F)(F)F)cc(C#N)c2c(=O)n1CCOc1ccc(Cl)cc1-c1cn(C)c(=O)c2c(C(=O)O)csc12"
obs_value = "> 7.30"

[[record]]
molecule = "Cc1cc(-c2cc(Cl)ccc2OCCn2c(C)nc3cc(F)c(C)c(C#N)c3c2=O)c2scc(C(=O)O)c2n1"
obs_value = "> 7.30"

[[record]]
molecule = "Cc1nc2cc(C(F)(F)Cl)cc(C#N)c2c(=O)n1CCOc1ccc(Cl)cc1-c1ccnc2c(C(=O)O)csc12"
obs_value = "> 7.30"

[[record]]
molecule = "Cc1cc(-c2cc(Cl)ccc2OCCn2c(C)nc3cc(C(F)(F)F)c(OCC(F)F)c(C#N)c3c2=O)c2scc(C(=O)O)c2n1"
obs_value = "> 7.30"


The reported numbers originate from patent US11286268B1.
